Provenance of the data: patent US11759412B2

Tested on: Aged Human Keratinocytes
Experiment: Glutathione Assay (total glutathione, GSH-GSSG Glo, menadione challenge)
Assay type: cell-based
Details: resorcinol/test reagent combined with GAP; + menadione
PROPERTY_LABEL: synergistic increase in GSH synthesis, combination with GAP amino acids vs either alone

ENTRY_SMILES	RESULT
CCCCCCc1ccc(O)cc1O	synergistic increase
CCCCc1ccc(O)cc1O	synergistic increase

----------
Tested on: Aged Human Keratinocytes
Assay: Glutathione Assay (total glutathione, GSH-GSSG Glo, menadione challenge)
Format: cell-based
Conditions: resorcinol/test reagent combined with GAP; + menadione
PROPERTY_LABEL: synergistic increase in GSH synthesis, combination with GAP amino acids vs either alone

MOLECULE	TARGET_OF_ASSAY	RESULT
CC(C)c1ccc(O)cc1O [IPR, 4-isopropylresorcinol]	Aged Human Keratinocytes	synergistic increase
CCc1ccc(O)cc1O [ER, 4-ethylresorcinol]	Aged Human Keratinocytes	synergistic increase
